# System: SN12C
# experimentSummary: NCI tumour cell line growth inhibition, 48 h
Active and inactive are the calls of the source. Cut-off read from the data, not from the text of the source: active = GI50 up to about 1.1 µM and inactive = higher.
Please provide measured GI50 for the entries that follow.

The compound `COc1cc2nncc(SCc3ccc(Cl)c(Cl)c3)c2cc1OC` showed GI50 equal to > 100 µM (inactive)

Looking up `CC(C)=CCC/C(C)=C/Cc1c(O)c(C)cc2c1[nH]c1cc(O)ccc12` , I see its GI50 listed as > 25 µM (inactive)

GI50 recorded for this compound, `NC(=O)/C=C/NC(=O)/C=N\O` , is > 100 µM (inactive)

Please fill in: GI50 reported for `Cc1ccc2nc(SCC(=O)N/N=C3\C(=O)Nc4ccccc43)n(-c3ccccc3)c(=O)c2c1` = 15.7 µM (inactive)

Form field GI50, entry `COc1cccc(/C=N/NC(=O)CN(C)C)c1O` : > 100 µM (inactive)

Recorded GI50 (compound `CC(=O)O[C@H]1CC[C@@]2(C)C(=CC[C@H]3[C@@H]4C/C(=C\c5ccncc5)[C@H](OC(C)=O)[C@@]4(C)CC[C@@H]32)C1` ): 16.9 µM (inactive)

For record COC(=O)C[C@H]1[C@]2(C)C3=C(C)[C@H](c4ccoc4)CC3O[C@@H]2[C@@H]2OC(=O)[C@]3(C)CCC(=O)[C@@]1(C)[C@@H]23 (stereo partly specified) the listed GI50 is 69.7 µM (inactive)

// recorded GI50 for C=C1C(=O)C23C(O)CC4C5(C)CCCC4(C(O)OC5)C2C(OC(C)=O)CC1C3O (stereo unspecified) : 10.6 µM (inactive)

Form: compound = C=CCCCC1SC2=C(CC)CCCN2C1=O (stereo unspecified) ; GI50 = > 100 µM (inactive)

Lookup result for CCCCCCCCCCCCCCCCCCNc1ccn(C2OC(COP(=O)(O)OCCCCCCCCCCCCCCCC)C(O)C2O)c(=O)n1 (stereo unspecified) ; measured GI50: > 100 µM (inactive)

Recorded GI50 (compound CC1=NOC(=O)C1/N=N/c1ccc(Br)c(C)c1 (stereo unspecified) ): 18.2 µM (inactive)

The recorded GI50 for `CCOC(=O)N(C)C(=C(F)F)C(F)(F)F` is > 10 µM (inactive)

In plain terms, CCOc1ccc(NC(=O)CC2SC(N)=NC2=O)cc1 (stereo unspecified) has a documented GI50 of > 100 µM (inactive)

// GI50 lookup, compound = `CC(=O)/C=C1/C(=O)C(CC(C)C)=C1CC(C)C` , result: > 100 µM (inactive)

Noted for `O=C(O)c1ccc(NNC(=O)c2cccc3c(=O)c4ccccc4[nH]c23)cc1` : its GI50 reads > 100 µM (inactive)

Field GI50 (entry `CC1=NN(c2nc(N)nc(CCl)n2)CC1` ) reads 32.4 µM (inactive)

Form: compound = `CSc1cccc(NC(=O)OC2CCCCCCCCCCC2)c1` ; GI50 = 15.5 µM (inactive)

Per the records, this compound ( `COc1ccc(N(C)S(=O)(=O)c2ccccc2)cc1` ) has GI50 equal to > 100 µM (inactive)

For `CCc1nc2c([nH]1)C(=O)c1ccccc1C2=O` the compound record lists GI50 as 37.2 µM (inactive)

Kindly note the recorded GI50 for `CCCCN1C(=O)CS/C1=N/Nc1nc2c([nH]1)c(=O)n(C)c(=O)n2C` , which is 33.6 µM (inactive)

Query CC(=O)Oc1ccc(N2C(=O)C3c4[nH]c5ccccc5c4C4CCC(C(C)(C)C)CC4C3C2=O)cc1 (stereo unspecified) yields GI50 of 2.14 µM (inactive)
